- Target System: MMP-9 (Homo sapiens, UniProt P14780)
- Sequence (P14780 107-707 limits assumed, species assumed): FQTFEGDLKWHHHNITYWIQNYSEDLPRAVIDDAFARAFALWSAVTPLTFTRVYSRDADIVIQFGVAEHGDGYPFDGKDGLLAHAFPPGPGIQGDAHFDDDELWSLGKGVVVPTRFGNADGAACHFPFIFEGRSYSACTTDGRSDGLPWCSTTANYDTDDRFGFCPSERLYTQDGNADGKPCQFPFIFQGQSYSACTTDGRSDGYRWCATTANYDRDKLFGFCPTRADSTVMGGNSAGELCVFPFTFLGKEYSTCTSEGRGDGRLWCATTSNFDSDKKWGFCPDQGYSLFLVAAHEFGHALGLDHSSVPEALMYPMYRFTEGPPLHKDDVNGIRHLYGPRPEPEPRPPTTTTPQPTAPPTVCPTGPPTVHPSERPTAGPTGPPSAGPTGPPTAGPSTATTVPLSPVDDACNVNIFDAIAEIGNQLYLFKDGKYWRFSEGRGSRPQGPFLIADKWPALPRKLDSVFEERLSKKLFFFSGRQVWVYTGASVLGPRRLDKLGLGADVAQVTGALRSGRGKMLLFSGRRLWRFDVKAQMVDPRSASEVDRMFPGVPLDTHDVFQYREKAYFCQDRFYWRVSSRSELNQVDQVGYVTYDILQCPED
Endpoint Name: IC50 (nM)

Solved cases below.
{"columns": ["Compound", "Unit Abbrev", "IC50"],
 "data": [
  ["O=C(NO)C(O)CS(=O)(=O)c1ccc(Sc2ccccc2)cc1 (stereo not shown)", "nM", 175],
  ["O=C(NO)C(O)(CO)CS(=O)(=O)c1ccc(Oc2ccccc2)cc1 (stereo not shown)", "nM", 7],
  ["O=C(NO)[C@@H](O)CS(=O)(=O)c1ccc(Oc2ccccc2)cc1", "nM", 18],
  ["Cl.O=C(NO)C(O)(CN1CCOCC1)CS(=O)(=O)c1ccc(Oc2ccccc2)cc1 (stereo not shown) [Example 3, monohydrochloride]", "nM", 20],
  ["C[C@](O)(CS(=O)(=O)c1ccc(Oc2ccccc2)cc1)C(=O)NO", "nM", 328]
]}

[A] C[C@@](O)(CS(=O)(=O)c1ccc(Oc2ccccc2)cc1)C(=O)NO
[B] Cc1ccc(Oc2ccc(S(=O)(=O)CC(O)(CO)C(=O)NO)cc2)cc1C (stereo not shown)
Task: Please tell me which of the two, A or B , has the higher reported IC50 value. Record your answer as the label of the chosen record.
Result: B
(B: 12.4 nM, A: 1.7 nM)

====

- Target System: recombinant human MMP-13 (Homo sapiens)
- Measurement Description: In vitro metalloprotease inhibition, fluorogenic peptide assay
- Run Parameters: APMA-activated enzyme, MCA peptide substrate 4 μM, room temperature, pH 7.5
Endpoint Name: IC50 (nM)

Field: example entries. Status: answers known.
{"columns": ["Compound", "IC50, nM"],
 "data": [
  ["Cl.O=C(NO)C(O)(CN1CCOCC1)CS(=O)(=O)c1ccc(Oc2ccccc2)cc1 (stereo not drawn) [Example 3, monohydrochloride]", 3],
  ["O=C(NO)[C@@H](O)CS(=O)(=O)c1ccc(Oc2ccccc2)cc1", 1],
  ["CC(O)(CS(=O)(=O)c1ccc(NC(=O)c2cccc(N)c2)cc1)C(=O)NO (stereo not drawn)", 290]
]}

[I] CC(O)(CS(=O)(=O)c1ccc(NC(=O)c2cccc(NCCCCO)c2)cc1)C(=O)NO (stereo not drawn)
[II] C[C@@](O)(CS(=O)(=O)c1ccc(Oc2ccccc2)cc1)C(=O)NO
[III] CC(C)CC(=O)Nc1ccc(S(=O)(=O)CC(C)(O)C(=O)NO)cc1 (stereo not drawn)
[IV] COc1ccc(S(=O)(=O)CC(O)C(=O)NO)cc1 (stereo not drawn)
Task: List items by IC50 in falling order. Dear reader, please state the labels in the requested order.
Result: I, III, IV, II
(I: 1600 nM, III: 900 nM, IV: 200 nM, II: 0.75 nM)

[a] Cc1ccc(Oc2ccc(S(=O)(=O)CC(O)(CN3CCOCC3)C(=O)NO)cc2)cc1C (stereo not drawn)
[b] CCCCc1ccc(C(=O)Nc2ccc(S(=O)(=O)CC(C)(O)C(=O)NO)cc2)cc1 (stereo not drawn)
[c] Cc1cccc(C(=O)Nc2ccc(S(=O)(=O)CC(C)(O)C(=O)NO)cc2)c1 (stereo not drawn)
[d] Cc1cccc(NC(=O)Nc2ccc(S(=O)(=O)CC(C)(O)C(=O)NO)cc2)c1 (stereo not drawn)
[e] CCCCOc1ccc(C(=O)Nc2ccc(S(=O)(=O)CC(C)(O)C(=O)NO)cc2)cc1 (stereo not drawn)
Task: Rank ascending by IC50. Your task in answering is to list the labels in the requested order.
Result: b, e, a, c, d

====

Item-by-item account of pIC50
- Target System: recombinant human MMP-1 (Homo sapiens, UniProt P03956)
- Sequence (P03956 100-469): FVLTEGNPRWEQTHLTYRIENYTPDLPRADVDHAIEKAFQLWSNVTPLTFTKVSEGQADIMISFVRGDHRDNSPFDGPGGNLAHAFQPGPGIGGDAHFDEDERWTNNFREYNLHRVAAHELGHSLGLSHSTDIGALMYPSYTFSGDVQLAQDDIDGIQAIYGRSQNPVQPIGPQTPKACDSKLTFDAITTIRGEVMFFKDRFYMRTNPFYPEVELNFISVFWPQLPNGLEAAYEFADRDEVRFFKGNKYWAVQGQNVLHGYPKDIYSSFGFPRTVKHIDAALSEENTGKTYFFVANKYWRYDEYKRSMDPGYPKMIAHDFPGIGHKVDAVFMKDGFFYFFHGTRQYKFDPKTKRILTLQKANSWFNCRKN
- Measurement Description: In vitro metalloprotease inhibition, fluorogenic peptide assay
- Run Parameters: APMA-activated enzyme, MCA peptide substrate 4 μM, room temperature, pH 7.5
pIC50: −log10 of the molar value.

{"columns": ["Compound", "pIC50"],
 "data": [
  ["CCCCCCCOc1ccc(C(=O)Nc2ccc(S(=O)(=O)CC(C)(O)C(=O)NO)cc2)cc1 (stereo not shown) [Example 24]", "< 5.00"]
]}

Task: Param readout = pIC50; param system = recombinant human MMP-1 (Homo sapiens, UniProt P03956); param query = Cc1cccc(NC(=O)Nc2ccc(S(=O)(=O)CC(C)(O)C(=O)NO)cc2)c1 (stereo not shown) [Example 20] ; response: value
Result: < 5.00

Task: Give pIC50 (recombinant human MMP-1 (Homo sapiens, UniProt P03956)) of the following compound: Cc1ccc(Oc2ccc(S(=O)(=O)CC(C)(O)C(=O)NO)cc2)cc1C (stereo not shown) [Example 5]
Result: < 5.00

Task: Given the entry O=C(NO)C(O)(CO)CS(=O)(=O)c1ccc(Sc2ccccc2)cc1 (stereo not shown) [Example 13] , what pIC50 was observed with recombinant human MMP-1 (Homo sapiens, UniProt P03956)?
Result: < 5.00

Task: I'm curious: which pIC50 was measured for Cl.O=C(NO)C(O)(CN1CCOCC1)CS(=O)(=O)c1ccc(Oc2ccccc2)cc1 (stereo not shown) [Example 3, monohydrochloride] tested on recombinant human MMP-1 (Homo sapiens, UniProt P03956)?
Result: 5.22

Task: Observed pIC50 on recombinant human MMP-1 (Homo sapiens, UniProt P03956) for O=C(NO)C(O)(CO)CS(=O)(=O)c1ccc(Oc2ccccc2)cc1 (stereo not shown) [Example 2] , please.
Result: 6.33

====

Measured IC50 on MMP-2 (Homo sapiens) follows.
Sequence (P08253 110-660, species assumed): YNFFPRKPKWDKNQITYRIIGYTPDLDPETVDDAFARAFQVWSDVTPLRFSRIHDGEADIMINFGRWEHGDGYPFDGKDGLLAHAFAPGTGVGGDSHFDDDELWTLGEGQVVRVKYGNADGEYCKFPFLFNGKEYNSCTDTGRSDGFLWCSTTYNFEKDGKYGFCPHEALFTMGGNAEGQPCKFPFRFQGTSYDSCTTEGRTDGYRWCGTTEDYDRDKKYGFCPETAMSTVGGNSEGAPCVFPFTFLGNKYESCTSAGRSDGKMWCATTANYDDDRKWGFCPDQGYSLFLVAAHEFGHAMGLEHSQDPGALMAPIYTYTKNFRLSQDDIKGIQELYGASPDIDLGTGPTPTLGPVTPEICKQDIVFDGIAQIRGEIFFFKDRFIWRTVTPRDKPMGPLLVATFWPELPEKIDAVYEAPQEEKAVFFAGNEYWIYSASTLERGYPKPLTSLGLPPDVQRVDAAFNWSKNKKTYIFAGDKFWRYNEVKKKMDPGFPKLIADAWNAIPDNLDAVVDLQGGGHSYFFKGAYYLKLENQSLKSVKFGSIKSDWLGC
Endpoint Name: IC50 (nM)

Below, 2 compounds whose answers are already recorded.
{"columns": ["Compound", "Target System", "Endpoint Name", "Experimental Value"],
 "data": [
  ["C[C@@](O)(CS(=O)(=O)c1ccc(Oc2ccccc2)cc1)C(=O)NO [Example 1A]", "MMP-2 (Homo sapiens)", "IC50", 0.39],
  ["COCC(O)(CS(=O)(=O)c1ccc(Oc2ccccc2)cc1)C(=O)NO (stereo not shown) [Example 6]", "MMP-2 (Homo sapiens)", "IC50", 14.8]
]}

[a] COc1cccc(C(=O)Nc2ccc(S(=O)(=O)CC(C)(O)C(=O)NO)cc2)c1 (stereo not shown) [Example 27]
[b] Cl.O=C(NO)C(O)(CN1CCOCC1)CS(=O)(=O)c1ccc(Oc2ccccc2)cc1 (stereo not shown) [Example 3, monohydrochloride]
Task: Which gives the smaller IC50 number: a or b ? Write down the label attached to your selection.
Result: b
(b: 1 nM, a: 10 nM)

[P] O=C(NO)[C@H](O)CS(=O)(=O)c1ccc(Oc2ccccc2)cc1 [Example 11]
[Q] CC(O)(CS(=O)(=O)c1ccc(NC(=O)c2ccccc2)cc1)C(=O)NO (stereo not shown) [Example 16]
[R] Cc1ccccc1NC(=O)Nc1ccc(S(=O)(=O)CC(C)(O)C(=O)NO)cc1 (stereo not shown) [Example 19]
[S] O=C(NO)C(O)CS(=O)(=O)c1ccc(Sc2ccccc2)cc1 (stereo not shown) [Example 12]
[T] O=C(NO)C(O)CS(=O)(=O)c1ccc(Oc2ccccc2)cc1 (stereo not shown) [Example 9]
Task: Given 5 compounds, produce a descending ranking by IC50. Provide the ranking by listing each label in its place in the requested order.
Result: R, P, S, Q, T
(R: 2600 nM, P: 7 nM, S: 2 nM, Q: 0.8 nM, T: 0.4 nM)

[I] Cc1ccc(Oc2ccc(S(=O)(=O)CC(O)(CN3CCOCC3)C(=O)NO)cc2)cc1C (stereo not shown) [Example 7]
[II] Cc1ccc(Oc2ccc(S(=O)(=O)CC(O)(CO)C(=O)NO)cc2)cc1C (stereo not shown) [Example 4]
[III] CC(O)(CS(=O)(=O)c1ccc(NC(=O)Nc2ccccc2)cc1)C(=O)NO (stereo not shown) [Example 15]
Task: Hey, quick one: sort these by IC50, low to high? Please express your ranking as an ordered list of the labels.
Result: II, I, III
(II: 0.4 nM, I: 2 nM, III: 87 nM)

[P] CC(O)(CS(=O)(=O)c1ccc(NC(=O)c2cccc(F)c2)cc1)C(=O)NO (stereo not shown) [Example 29]
[Q] CC(O)(CS(=O)(=O)c1ccc(NC(=O)c2cccc(N)c2)cc1)C(=O)NO (stereo not shown) [Example 35]
Task: Between the two listed entries P and Q , which has its IC50 at the higher number? Label of pick, please.
Result: Q
(Q: 6.7 nM, P: 1.8 nM)

====

- Target System: MMP-8 (Homo sapiens, UniProt P22894)
- Sequence (P22894 101-467, species assumed): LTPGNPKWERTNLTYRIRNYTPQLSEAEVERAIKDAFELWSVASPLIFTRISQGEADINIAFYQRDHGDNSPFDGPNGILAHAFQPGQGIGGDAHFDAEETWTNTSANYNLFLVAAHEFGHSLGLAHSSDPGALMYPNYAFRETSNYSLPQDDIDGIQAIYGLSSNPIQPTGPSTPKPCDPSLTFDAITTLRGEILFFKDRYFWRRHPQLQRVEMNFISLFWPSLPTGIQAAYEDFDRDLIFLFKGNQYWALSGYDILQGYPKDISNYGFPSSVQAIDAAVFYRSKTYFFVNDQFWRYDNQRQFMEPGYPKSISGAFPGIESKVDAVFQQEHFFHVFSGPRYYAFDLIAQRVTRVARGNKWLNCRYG
pIC50: −log10 of the molar value.
Endpoint Name: pIC50

{"columns": ["Compound", "Experimental Value"],
 "data": [
  ["Cc1ccc(Oc2ccc(S(=O)(=O)CC(O)(CN3CCOCC3)C(=O)NO)cc2)cc1C (stereo not shown)", 8.40],
  ["O=C(NO)C(O)(CO)CS(=O)(=O)c1ccc(Oc2ccccc2)cc1 (stereo not shown)", 8.39],
  ["Cc1ccc(Oc2ccc(S(=O)(=O)CC(O)(CO)C(=O)NO)cc2)cc1C (stereo not shown)", 8.35],
  ["Cl.O=C(NO)C(O)(CN1CCOCC1)CS(=O)(=O)c1ccc(Oc2ccccc2)cc1 (stereo not shown) [Example 3, monohydrochloride]", 8.40]
]}

These entries and their values trace back to patent US6362183B1.
